# assay.procedure: qHTS for Inhibitors of ATXN expression: Validation of Cytotoxic Assay (AID 588349);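 also: cells exposed to compound for 72 hr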
# assay.setup: cytotoxicity counter-screen for ATXN expression inhibitors, cell viability; series mostly up to 57.1 µM
Records with an inconclusive call do not appear. Calls of active or inactive are those of the source. Calls follow the shape of the dose curve; as a rule, active = well fitted cell-killing curve with a large enough effect; inconclusive = small, poorly fitted or top-dose-only effect, or effect the other way; inactive = flat fitted curve, though single readings scatter.
outcome.measure: outcome

Below, each entry is followed by its recorded outcome result.
| compound | outcome |
| --- | --- |
| CCCC1O[C@@H]2C[C@H]3[C@@H]4CCC5=CC(=O)C=C[C@]5(C)[C@H]4[C@@H](O)C[C@]3(C)[C@]2(C(=O)CO)O1 (stereo not given in full) | inactive |
| CC1(C)CCC(NC(=O)[C@@H](N)CCC(=O)O)CC1 | inactive |
| C[N+]1(CCCCC[N+]2(C)CCCC2)CCCC1 | inactive |
| CC[C@H](C)C(=O)O[C@H]1CCC=C2C=C[C@H](C)[C@H](CC[C@@H]3C[C@@H](O)CC(=O)O3)[C@H]21 | inactive |

Then there is this compound:
I would be grateful if you could share the reported outcome for O=C1CCC(c2ccc(-n3ccnc3)cc2)=NN1 .
inactive
